experiment: Stability of (7aS,2′S)-2-oxo-clopidogrel in plasma, screening of TCEP dosage (Example 4); assay type: in vitro ADME; details: plasma, TCEP 50 mg/ml; theoretical 12.0 ng/mL; on ice; 30 min; read-out: Recovery rate
readout name: recovery at 30 min, 12 ng/mL (%)
Could you give me the number in %? Just the number is fine.

Would you kindly share the measured recovery at 30 min, 12 ng/mL for "COC(=O)[C@H](c1ccccc1Cl)N1CC[C@@H]2SC(=O)C=C2C1" ?
102

---

assay: Stability of (7aS,2′S)-2-oxo-clopidogrel in plasma, screening of TCEP dosage (Example 4); type: in vitro ADME; settings: plasma without TCEP, No TCEP; theoretical 0.1 ng/mL; on ice; 0 min; read-out: Recovery rate
readout name: recovery at 0 min, 0.1 ng/mL
Answers without a unit are incomplete; give the number and then its unit.

Would you kindly share the measured recovery at 0 min, 0.1 ng/mL for "COC(=O)[C@H](c1ccccc1Cl)N1CC[C@@H]2SC(=O)C=C2C1" ?
96.5%

---

assay: Stability of (7aS,2′S)-2-oxo-clopidogrel in plasma, screening of TCEP dosage (Example 4); type: in vitro ADME; settings: plasma containing TCEP 10 mg/ml, TCEP 10 mg/ml; theoretical 12.0 ng/mL; on ice; 60 min; read-out: Recovery rate
readout name: recovery at 60 min, 12 ng/mL (%)
Could you give me the number in %? Just the number is fine.

Would you kindly share the measured recovery at 60 min, 12 ng/mL for COC(=O)[C@H](c1ccccc1Cl)N1CC[C@@H]2SC(=O)C=C2C1 [(7aS,2′S)-2-oxo-clopidogrel] ?
88.8

---

experiment: Stability of (7aS,2′S)-2-oxo-clopidogrel in plasma containing the reducing agent (Example 8); assay type: in vitro ADME, human; conditions: human, plasma containing the reducing agent (TCEP); plasma with reducing agent; three cycles of freeze-thaw; theoretical 0.1 ng/mL; read-out: Recovery rate
readout name: recovery at 0.1 ng/mL (%)
Could you give me the number in %? Just the number is fine.

Would you kindly share the measured recovery at 0.1 ng/mL for "COC(=O)[C@H](c1ccccc1Cl)N1CC[C@@H]2SC(=O)C=C2C1" ?
100

---

test: Stability of (7aS,2′S)-2-oxo-clopidogrel in plasma, screening of TCEP dosage (Example 4); type: in vitro ADME; settings: plasma, TCEP 100 mg/ml; theoretical 12.0 ng/mL; room temperature; 120 min; read-out: Recovery rate
readout name: recovery at 120 min, 12 ng/mL
Answers without a unit are incomplete; give the number and then its unit.

Would you kindly share the measured recovery at 120 min, 12 ng/mL for COC(=O)[C@H](c1ccccc1Cl)N1CC[C@@H]2SC(=O)C=C2C1 [(7aS,2′S)-2-oxo-clopidogrel] ?
96.7%

---

assay: Stability of (7aS,2′S)-2-oxo-clopidogrel in plasma, screening of TCEP dosage (Example 4); type: in vitro ADME; conditions: plasma containing TCEP 10 mg/ml, TCEP 10 mg/ml; theoretical 0.1 ng/mL; on ice; 120 min; read-out: Recovery rate
readout name: recovery at 120 min, 0.1 ng/mL (%)
Could you give me the number in %? Just the number is fine.

Would you kindly share the measured recovery at 120 min, 0.1 ng/mL for "COC(=O)[C@H](c1ccccc1Cl)N1CC[C@@H]2SC(=O)C=C2C1" ?
78.2

---

experiment: Stability of (7aS,2′S)-2-oxo-clopidogrel in plasma, screening of TCEP dosage (Example 4); type: in vitro ADME; conditions: plasma without TCEP, No TCEP; theoretical 12.0 ng/mL; room temperature; 60 min; read-out: Recovery rate
readout name: recovery at 60 min, 12 ng/mL (%)
Could you give me the number in %? Just the number is fine.

Would you kindly share the measured recovery at 60 min, 12 ng/mL for "COC(=O)[C@H](c1ccccc1Cl)N1CC[C@@H]2SC(=O)C=C2C1" ?
69.8

---

assay: Stability of (7aS,2′S)-2-oxo-clopidogrel in plasma at −80° C., screening of reducing agent type (Example 5); assay type: in vitro ADME; conditions: plasma, TCEP 100 mg/ml, theoretical 0.1 ng/mL, day 10, read-out: Recovery rate
readout name: recovery at 10 day, 0.1 ng/mL (%)
Could you give me the number in %? Just the number is fine.

Would you kindly share the measured recovery at 10 day, 0.1 ng/mL for "COC(=O)[C@H](c1ccccc1Cl)N1CC[C@@H]2SC(=O)C=C2C1" ?
105

---

experiment: Stability of (7aS,2′S)-2-oxo-clopidogrel in plasma containing the reducing agent (Example 8); assay type: in vitro ADME, human; conditions: human, plasma containing the reducing agent (TCEP); plasma with reducing agent; placing in ice box for 4 h; theoretical 0.1 ng/mL; read-out: Recovery rate
readout name: recovery at 4 h, 0.1 ng/mL (%)
Could you give me the number in %? Just the number is fine.

Would you kindly share the measured recovery at 4 h, 0.1 ng/mL for "COC(=O)[C@H](c1ccccc1Cl)N1CC[C@@H]2SC(=O)C=C2C1" ?
100

---

experiment: Stability of (7aS,2′S)-2-oxo-clopidogrel in plasma, screening of TCEP dosage (Example 4); type: in vitro ADME; details: plasma containing TCEP 10 mg/ml, TCEP 10 mg/ml; theoretical 0.1 ng/mL; room temperature; 0 min; read-out: Recovery rate
readout name: recovery at 0 min, 0.1 ng/mL
Answers without a unit are incomplete; give the number and then its unit.

Would you kindly share the measured recovery at 0 min, 0.1 ng/mL for COC(=O)[C@H](c1ccccc1Cl)N1CC[C@@H]2SC(=O)C=C2C1 [(7aS,2′S)-2-oxo-clopidogrel] ?
96.5%

---

test: Stability of (7aS,2′S)-2-oxo-clopidogrel in plasma, screening of TCEP dosage (Example 4); type: in vitro ADME; conditions: plasma without TCEP, No TCEP; theoretical 0.1 ng/mL; room temperature; 30 min; read-out: Recovery rate
readout name: recovery at 30 min, 0.1 ng/mL (%)
Could you give me the number in %? Just the number is fine.

Would you kindly share the measured recovery at 30 min, 0.1 ng/mL for COC(=O)[C@H](c1ccccc1Cl)N1CC[C@@H]2SC(=O)C=C2C1 [(7aS,2′S)-2-oxo-clopidogrel] ?
78.2

---

assay: Stability of (7aS,2′S)-2-oxo-clopidogrel in plasma, screening of TCEP dosage (Example 4); assay type: in vitro ADME; conditions: plasma containing TCEP 10 mg/ml, TCEP 10 mg/ml; theoretical 12.0 ng/mL; room temperature; 60 min; read-out: Recovery rate
readout name: recovery at 60 min, 12 ng/mL

Would you kindly share the measured recovery at 60 min, 12 ng/mL for "COC(=O)[C@H](c1ccccc1Cl)N1CC[C@@H]2SC(=O)C=C2C1" ?
86.7%

---

experiment: Stability of (7aS,2′S)-2-oxo-clopidogrel in plasma, screening of TCEP dosage (Example 4); type: in vitro ADME; conditions: plasma, TCEP 100 mg/ml; theoretical 0.1 ng/mL; room temperature; 0 min; read-out: Recovery rate
readout name: recovery at 0 min, 0.1 ng/mL (%)
Could you give me the number in %? Just the number is fine.

Would you kindly share the measured recovery at 0 min, 0.1 ng/mL for COC(=O)[C@H](c1ccccc1Cl)N1CC[C@@H]2SC(=O)C=C2C1 [(7aS,2′S)-2-oxo-clopidogrel] ?
96.5

---

assay: Stability of (7aS,2′S)-2-oxo-clopidogrel in plasma, screening of TCEP dosage (Example 4); format: in vitro ADME; settings: plasma without TCEP, No TCEP; theoretical 0.1 ng/mL; on ice; 60 min; read-out: Recovery rate
readout name: recovery at 60 min, 0.1 ng/mL (%)
Could you give me the number in %? Just the number is fine.

Would you kindly share the measured recovery at 60 min, 0.1 ng/mL for "COC(=O)[C@H](c1ccccc1Cl)N1CC[C@@H]2SC(=O)C=C2C1" ?
76.3

---

experiment: Stability of (7aS,2′S)-2-oxo-clopidogrel in plasma, screening of TCEP dosage (Example 4); format: in vitro ADME; conditions: plasma containing TCEP 10 mg/ml, TCEP 10 mg/ml; theoretical 0.1 ng/mL; room temperature; 30 min; read-out: Recovery rate
readout name: recovery at 30 min, 0.1 ng/mL (%)
Could you give me the number in %? Just the number is fine.

Would you kindly share the measured recovery at 30 min, 0.1 ng/mL for "COC(=O)[C@H](c1ccccc1Cl)N1CC[C@@H]2SC(=O)C=C2C1" ?
95.2

---

assay: Stability of (7aS,2′S)-2-oxo-clopidogrel in plasma at −80° C., screening of reducing agent type (Example 5); type: in vitro ADME; conditions: blank plasma containing TCEP 100 mg/ml, TCEP 100 mg/ml, theoretical 12.0 ng/mL, day 0, read-out: Recovery rate
readout name: recovery at 0 day, 12 ng/mL
Answers without a unit are incomplete; give the number and then its unit.

Would you kindly share the measured recovery at 0 day, 12 ng/mL for COC(=O)[C@H](c1ccccc1Cl)N1CC[C@@H]2SC(=O)C=C2C1 [(7aS,2′S)-2-oxo-clopidogrel] ?
101%
